MEASUREMENT TARGET: EGFR^L858R/T790M/C^797S (Homo sapiens, UniProt P00533, C797S/L858R/T790M)
Sequence (P00533 25-1210 T790M/C797S/L858R): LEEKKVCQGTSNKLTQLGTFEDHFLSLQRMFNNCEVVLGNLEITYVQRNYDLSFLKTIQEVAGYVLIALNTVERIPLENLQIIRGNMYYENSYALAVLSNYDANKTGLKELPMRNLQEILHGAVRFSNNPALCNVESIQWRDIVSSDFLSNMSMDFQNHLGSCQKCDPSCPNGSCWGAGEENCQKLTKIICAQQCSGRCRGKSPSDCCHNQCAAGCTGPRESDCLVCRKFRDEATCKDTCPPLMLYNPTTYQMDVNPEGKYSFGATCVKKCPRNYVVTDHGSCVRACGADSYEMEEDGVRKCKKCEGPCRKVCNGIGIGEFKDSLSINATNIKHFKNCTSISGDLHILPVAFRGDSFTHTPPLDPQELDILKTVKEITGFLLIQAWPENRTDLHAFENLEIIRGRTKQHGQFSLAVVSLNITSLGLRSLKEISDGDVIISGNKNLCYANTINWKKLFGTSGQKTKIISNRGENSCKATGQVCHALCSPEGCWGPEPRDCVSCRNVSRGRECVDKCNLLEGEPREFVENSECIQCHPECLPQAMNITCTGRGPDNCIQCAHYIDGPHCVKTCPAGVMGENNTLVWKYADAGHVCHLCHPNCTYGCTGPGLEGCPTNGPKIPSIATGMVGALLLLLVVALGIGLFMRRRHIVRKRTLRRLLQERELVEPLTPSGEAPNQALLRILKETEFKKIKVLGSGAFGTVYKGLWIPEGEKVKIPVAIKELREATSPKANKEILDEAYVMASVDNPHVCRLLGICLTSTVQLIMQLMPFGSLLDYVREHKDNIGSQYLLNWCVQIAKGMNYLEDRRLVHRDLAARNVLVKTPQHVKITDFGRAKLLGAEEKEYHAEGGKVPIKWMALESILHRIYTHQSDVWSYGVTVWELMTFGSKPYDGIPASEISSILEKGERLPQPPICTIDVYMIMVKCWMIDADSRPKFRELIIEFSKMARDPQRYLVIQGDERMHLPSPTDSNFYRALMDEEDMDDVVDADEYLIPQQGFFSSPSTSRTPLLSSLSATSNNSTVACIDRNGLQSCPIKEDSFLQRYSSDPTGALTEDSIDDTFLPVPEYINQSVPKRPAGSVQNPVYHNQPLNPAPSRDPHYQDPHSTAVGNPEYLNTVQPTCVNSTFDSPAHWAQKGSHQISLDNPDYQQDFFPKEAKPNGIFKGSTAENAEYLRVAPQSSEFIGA
METHOD: in vitro kinase assay (HTRF KinEASE-TK kit), LTC
CONDITION LABEL: kinase inhibition
Hi there, I'd appreciate the recorded IC50 for every entry that follows.

Enquiry: Recorded IC50 for Cn1ncc2c1OCCCn1nc(N3CCCC3C(=O)O)c3cnc(cc31)Nc1ccnc-2n1 (stereo not shown) , please?
Return: < 10 nM

Enquiry: Same for C[C@H]1CCOc2c(cnn2C)-c2nccc(n2)Nc2cc3c(cn2)c(N2CC[C@@H](N(C)CCF)C2)nn31
Return: < 10 nM

Enquiry: Request: CCN(CC)Cc1ccc(-c2nn3c4cc(ncc24)Nc2ccnc(n2)-c2cnn(C)c2OCC[C@@H]3C)n1C
Return: < 10 nM

Enquiry: Here is the next compound: CCn1cc(CN2CCN(C)CC2)cc1-c1nn2c3cc(ncc13)Nc1ccnc(n1)-c1cnn(C)c1OCCC2C (stereo not shown)
Return: < 10 nM

Enquiry: Can you check C[C@H]1CCOc2c(cnn2C)-c2nccc(n2)Nc2cc3c(cn2)c(N2CC[C@H](O)C2)nn31 next?
Return: < 10 nM

Enquiry: Try C[C@H]1CCOc2c(cnn2C)-c2nccc(n2)Nc2cc3c(cn2)c(-c2cccc(CN4CCN(C)CC4)c2)nn31 next.
Return: < 10 nM

Enquiry: Repeat for the following compound: Cn1ncc2c1OCCC(C)(C)n1nc(N3CCC3)c3cnc(cc31)Nc1ccnc-2n1
Return: < 10 nM

Enquiry: Quick one: C[C@H]1CCOc2c(cnn2C)-c2nccc(n2)Nc2cc3c(cn2)c(-c2cc(CN4CCN(C)CC4)n(C)n2)nn31
Return: < 10 nM

Enquiry: Also check Cc1cc(OCCN(C)C)cc(-c2nn3c4cc(ncc24)Nc2ccnc(n2)-c2cnn(C)c2OCC[C@@H]3C)c1
Return: < 10 nM

Enquiry: Quick one: CC1CCOc2c(cnn2C)-c2nccc(n2)Nc2cc3c(cn2)c(-c2cccn2CCN(C)C)nn31 (stereo not shown)
Return: < 10 nM

Enquiry: # iterate: CC1COc2c(cnn2C)-c2nccc(n2)Nc2cc3c(cn2)c(N2CCC2)nn3C1 (stereo not shown)
Return: < 10 nM

Enquiry: Moving on to CC1CCCOc2c(cnn2C)-c2nccc(n2)Nc2cc3c(cn2)c(N2CCC2)nn31 (stereo not shown)
Return: < 10 nM

Enquiry: Now the same for C[C@H]1CCOc2c(cnn2C)-c2nccc(n2)Nc2cc3c(cn2)c(-c2cnn(CCN(C)C)c2)nn31
Return: < 10 nM

Enquiry: Check C[C@H]1CCOc2c(cnn2C)-c2nccc(n2)Nc2cc3c(cn2)c(N2CC[C@@H](CN(C)CCF)C2)nn31 too.
Return: < 10 nM

Enquiry: Check CC1CCCCOc2c(cnn2C)-c2nccc(n2)Nc2cc3c(cn2)c(N2CCC2)nn31 (stereo not shown) too.
Return: < 10 nM

Enquiry: Now this one: C[C@H]1CCOc2c(cnn2C)-c2nccc(n2)Nc2cc3c(cn2)c(-c2csc(CN4CCN(C)CC4)n2)nn31
Return: < 10 nM

Enquiry: And then C[C@H]1CCOc2c(cnn2C)-c2nccc(n2)Nc2cc3c(cn2)c(-c2ccc(CN4CC[C@H](N(C)C)C4)n2C)nn31 , what is it?
Return: < 10 nM

Enquiry: Please do the same for CC(C)n1ncc2c1OCCCC(C)n1nc(N3CCC3)c3cnc(cc31)Nc1ccnc-2n1 (stereo not shown) as well.
Return: < 10 nM

Enquiry: Cool, now COCCN(C)Cc1ccc(-c2nn3c4cc(ncc24)Nc2ccnc(n2)-c2cnn(C)c2OCC[C@@H]3C)n1C
Return: < 10 nM

Enquiry: Please answer likewise for C[C@H]1CCOc2c(cnn2C)-c2nccc(n2)Nc2cc3c(cn2)c(-c2cccc(N4CCC(N5CCOCC5)CC4)c2)nn31
Return: < 10 nM

Enquiry: Would you kindly repeat that for C[C@H]1CCOc2c(cnn2C)-c2nccc(n2)Nc2cc3c(cn2)c(-c2ccnc(N4CCN(C)CC4)c2)nn31 ?
Return: < 10 nM

Enquiry: And the next one, C[C@H]1CCOc2c(cnn2C)-c2nccc(n2)Nc2cc3c(cn2)c(-c2cccc(N4CC[C@@H](N(C)C)C4)c2)nn31 ?
Return: < 10 nM

Enquiry: Param item: C[C@H]1CCOc2c(cnn2C)-c2nccc(n2)Nc2cc3c(cn2)c(-c2cn(C)cn2)nn31
Return: < 10 nM

Enquiry: Now try COC(=O)C1CCCN1c1nn2c3cc(ncc13)Nc1ccnc(n1)-c1cnn(C)c1OCCC2 (stereo not shown) .
Return: 10 to 100 nM

Enquiry: Also C[C@H]1CCOc2c(cnn2C)-c2nccc(n2)Nc2cc3c(cn2)c(-c2ccc(CN(C)CCF)n2C)nn31 ?
Return: < 10 nM

Enquiry: Same again, this time with CCn1c(CN2CCN(C3CC3)CC2)ccc1-c1nn2c3cc(ncc13)Nc1ccnc(n1)-c1cnn(C)c1OCC[C@@H]2C
Return: < 10 nM

Enquiry: Next compound: C[C@H]1CCOc2c(cnn2C)-c2nccc(n2)Nc2cc3c(cn2)c(N2CC[C@H](CN(C)CCF)C2)nn31
Return: < 10 nM

Enquiry: Okay, and C[C@H]1CCOc2c(cnn2C)-c2nccc(n2)Nc2cc3c(cn2)c(-c2cc(OCCN(C)C)ccc2F)nn31 ?
Return: < 10 nM

Enquiry: Also C[C@H]1CCOc2c(cnn2C)-c2nccc(n2)Nc2cc3c(cn2)c(-c2cnn(CCCN4CCOCC4)c2)nn31 ?
Return: < 10 nM

Enquiry: Okay, and CCN(CC)CCN(C)c1cc(F)cc(-c2nn3c4cc(ncc24)Nc2ccnc(n2)-c2cnn(C)c2OCC[C@@H]3C)c1 ?
Return: < 10 nM

Enquiry: Again, but for CC1CCCOc2c(cnn2C)-c2nccc(n2)Nc2cc3c(cn2)c(-c2ccc(CN4CCN(C5CC5)CC4)o2)nn31 (stereo not shown)
Return: < 10 nM

----------
Give GI50 for every item shown.
MEASUREMENT TARGET: Ba/F3 EGFR-Del19/T790M (Homo sapiens, UniProt P00533, T790M, cells depend on it, form not given)
Sequence (P00533 with tags, fused parts or gaps DEL746-750/T790M, form open): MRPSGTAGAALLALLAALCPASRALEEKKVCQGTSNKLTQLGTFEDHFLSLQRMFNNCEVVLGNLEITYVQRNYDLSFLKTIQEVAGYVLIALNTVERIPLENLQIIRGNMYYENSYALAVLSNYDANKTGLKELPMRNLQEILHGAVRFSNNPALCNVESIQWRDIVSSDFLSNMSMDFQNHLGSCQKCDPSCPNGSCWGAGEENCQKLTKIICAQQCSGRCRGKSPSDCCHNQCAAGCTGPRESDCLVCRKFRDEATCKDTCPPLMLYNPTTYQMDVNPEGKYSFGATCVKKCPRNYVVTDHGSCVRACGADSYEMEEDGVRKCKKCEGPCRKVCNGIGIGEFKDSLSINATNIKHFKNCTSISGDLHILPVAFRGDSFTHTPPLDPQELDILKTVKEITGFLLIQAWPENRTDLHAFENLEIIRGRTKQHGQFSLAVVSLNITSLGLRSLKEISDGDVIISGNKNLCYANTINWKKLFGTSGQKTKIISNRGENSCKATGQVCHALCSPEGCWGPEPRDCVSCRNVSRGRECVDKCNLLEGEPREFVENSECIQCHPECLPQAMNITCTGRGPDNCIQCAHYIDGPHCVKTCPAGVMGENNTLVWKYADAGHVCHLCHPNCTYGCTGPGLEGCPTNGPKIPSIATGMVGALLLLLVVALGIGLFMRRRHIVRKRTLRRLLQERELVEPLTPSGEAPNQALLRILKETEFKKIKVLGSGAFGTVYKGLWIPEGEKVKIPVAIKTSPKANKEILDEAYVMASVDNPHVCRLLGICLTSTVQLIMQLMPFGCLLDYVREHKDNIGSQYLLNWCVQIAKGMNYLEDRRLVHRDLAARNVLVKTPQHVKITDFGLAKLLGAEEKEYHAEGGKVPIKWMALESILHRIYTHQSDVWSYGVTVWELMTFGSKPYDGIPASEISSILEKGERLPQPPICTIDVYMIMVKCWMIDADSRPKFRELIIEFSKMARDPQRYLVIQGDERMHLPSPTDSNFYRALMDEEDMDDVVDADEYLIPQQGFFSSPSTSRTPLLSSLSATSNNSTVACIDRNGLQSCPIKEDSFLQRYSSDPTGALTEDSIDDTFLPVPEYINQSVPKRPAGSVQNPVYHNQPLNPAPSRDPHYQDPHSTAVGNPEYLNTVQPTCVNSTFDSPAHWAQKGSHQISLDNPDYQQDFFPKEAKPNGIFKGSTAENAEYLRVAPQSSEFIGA
METHOD: Ba/F3 viability assay (CellTiter-Glo), DT
Assay type: cell-based
CONDITION LABEL: anti-proliferation, read-out: BaF3 DT IC50

Enquiry: Which GI50 value belongs to Cc1nc(-c2nn3c4cc(ncc24)Nc2ccnc(n2)-c2cnn(C)c2OCC[C@@H]3C)sc1CN(C)C [(171)] ?
Return: 10 to 100 nM

Enquiry: Likewise for CC1CCCOc2c(cnn2C)-c2nccc(n2)Nc2cc3c(cn2)c(-c2ccnn2C)nn31 (stereo not drawn) [(75)] ?
Return: 10 to 100 nM

Enquiry: Record: C[C@H]1CCOc2c(cnn2C)-c2nccc(n2)Nc2cc3c(cn2)c(N2CCC2)nn31 [(70)]
Return: < 10 nM

Enquiry: Proceed to Cc1ccc(-c2nn3c4cc(ncc24)Nc2ccnc(n2)-c2cnn(C)c2OCC[C@@H]3C)n1C [(150)]
Return: 10 to 100 nM

Enquiry: Same lookup for C[C@H]1CCOc2c(cnn2C)-c2nccc(n2)Nc2cc3c(cn2)c(-c2ncc(CN4CCOCC4)s2)nn31 [(143)] , please.
Return: 10 to 100 nM

Enquiry: Also need CCN(CC)Cc1ccc(-c2nn3c4cc(ncc24)Nc2ccnc(n2)-c2cnn(C)c2OCC[C@@H]3C)n1C [(137)] , thanks.
Return: < 10 nM

Enquiry: Same again, this time with C[C@H]1CCOc2c(cnn2C)-c2nccc(n2)Nc2cc3c(cn2)c(-c2nn(C)cc2CCN(C)C)nn31 [(155)]
Return: 10 to 100 nM

Enquiry: Another compound to check: C[C@H]1CCOc2c(cnn2C)-c2nccc(n2)Nc2cc3c(cn2)c(-c2cc4c(n2C)CCCN(C)C4)nn31 [(185)]
Return: 10 to 100 nM

Enquiry: Then this compound: CN(C)CC1CCN(c2nn3c4cc(ncc24)Nc2ccnc(n2)-c2cnn(C)c2OCCC3)C1 (stereo not drawn) [(13)]
Return: 10 to 100 nM

Enquiry: Also need C[C@H]1CCOc2c(cnn2C)-c2nccc(n2)Nc2cc3c(cn2)c(-c2cnn(CCCN4CCOCC4)c2)nn31 [(115)] , thanks.
Return: 10 to 100 nM

Enquiry: Param item: C[C@H]1CCOc2c(cnn2C)-c2nccc(n2)Nc2cc3c(cn2)c(-c2ccc(CN4CCOCC4)n2C)nn31 [(120)]
Return: < 10 nM

Enquiry: Same question for CCN1CCC(Oc2cc(F)cc(-c3nn4c5cc(ncc35)Nc3ccnc(n3)-c3cnn(C)c3OCC[C@@H]4C)c2)CC1 [(128)] please.
Return: 10 to 100 nM

Enquiry: Another compound to check: C[C@H]1CCOc2c(cnn2C)-c2nccc(n2)Nc2cc3c(cn2)c(-c2cnn(CCN(C)C)c2)nn31 [(102)]
Return: 10 to 100 nM

Enquiry: Item: CCCN1CCN(Cc2cnc(-c3nn4c5cc(ncc35)Nc3ccnc(n3)-c3cnn(C)c3OCC[C@@H]4C)s2)CC1 [(142)]
Return: 10 to 100 nM

Enquiry: Continue with C[C@H]1CCOc2c(cnn2C)-c2nccc(n2)Nc2cc3c(cn2)c(-c2ccc(CN4CC[C@@H](N(C)C)C4)n2C)nn31 [(186)]
Return: < 10 nM
